- assay-comment: Inhibitory activity against prothrombinase complex (IIase).
measure: IC50 (nM)

These solved cases illustrate the format of a correct answer.
- CC(C)(C)OC(=O)NC(CCCN)C(=O)NCC(=O)N[C@H](C=O)CCCN=C(N)N (single isomer, unassigned): 65000
- C/N=C(\N(C)C)N(C)CCCC[C@H](NC(=O)OC(C)(C)C)C(=O)NCC(=O)NC(C=O)CCCN=C(N)N (some centres not stated): 12000

(a) N=C(N)NCCCC(NC(=O)CCc1ccccc1)C(=O)NCC(=O)N[C@H](C=O)CCCNC(=N)N (single isomer, unassigned)
(b) N=C(N)NCCCC(NC(=O)C(=O)O)C(=O)NCC(=O)N[C@H](C=O)CCCNC(=N)N (single isomer, unassigned)
(c) N=C(N)NCCC[C@@H](C=O)NC(=O)CNC(=O)C(CCCN=C(N)N)NC(=O)NCc1ccccc1 (single isomer, unassigned)
(d) CN(CC(=O)NC(C=O)CCCN=C(N)N)C(=O)[C@H](CCCN=C(N)N)NS(=O)(=O)Cc1ccccc1 (some centres not stated)
(e) N=C(N)NCCCC(C=O)NC(=O)CNC(=O)[C@H](CCCN=C(N)N)NS(=O)(=O)CCc1ccccc1 (some centres not stated)
Asked: Please list these in order of increasing IC50. Thank you! List labels; respect the requested ordering.
Given back: e, d, c, b, a
(e: 38 nM, d: 58 nM, c: 180 nM, b: 630 nM, a: 2000 nM)

====

- target-entity: Thrombin and coagulation factor X (Homo sapiens) (UniProt P00734+P00742)
- Sequence (P00742 whole entry, looked up, other chains not shown): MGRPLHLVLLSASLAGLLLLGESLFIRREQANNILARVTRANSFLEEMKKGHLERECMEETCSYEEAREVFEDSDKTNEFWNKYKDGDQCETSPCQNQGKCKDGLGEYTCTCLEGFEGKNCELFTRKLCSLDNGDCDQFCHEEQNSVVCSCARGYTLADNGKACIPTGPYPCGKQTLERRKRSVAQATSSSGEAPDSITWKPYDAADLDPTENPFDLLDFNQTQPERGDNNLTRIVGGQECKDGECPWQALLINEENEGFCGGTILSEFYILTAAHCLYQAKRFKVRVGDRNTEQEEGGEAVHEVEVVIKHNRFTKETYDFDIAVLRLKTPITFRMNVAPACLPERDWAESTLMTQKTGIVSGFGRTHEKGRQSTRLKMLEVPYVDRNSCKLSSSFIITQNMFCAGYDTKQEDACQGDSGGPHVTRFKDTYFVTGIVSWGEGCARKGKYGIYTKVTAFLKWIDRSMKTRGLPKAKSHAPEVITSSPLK
- assay-comment: Ratio of factor Xa inhibitory activity to that of factor IIa inhibitory activity
- Format: protein assay
Square brackets hold non-standard residues; d marks the D form. Peptide text beside a SMILES is read from it. * marks the point of attachment. ξ: configuration not given here. ξR = N=C(N)NCCCC(N)C(=O)O; Boc = CC(C)(C)OC(=O)*; ξP = O=C(O)C1CCCN1
measure: Ratio

These solved cases illustrate the format of a correct answer.
- CC(C)(C)OC(=O)NC(CCCN)C(=O)NCC(=O)N[C@H](C=O)CCCN=C(N)N (single isomer, unassigned): 42
- N=C(N)NCCCC(C=O)NC(=O)CNC(=O)[C@H](CCCN=C(N)N)NS(=O)(=O)CCc1ccccc1 (stereo partly specified): 2300

(1) N=C(N)NCCCC(C=O)NC(=O)CNC(=O)[C@H](CCCNC(=N)N)NS(=O)(=O)CCc1cccc2ccccc12 (stereo partly specified)
(2) C/N=C(\N(C)C)N(C)CCCC[C@H](NC(=O)OC(C)(C)C)C(=O)NCC(=O)NC(C=O)CCCN=C(N)N (stereo partly specified)
(3) CC(C)(C)OC(=O)N[C@@H](CCCN=C(N)N)C(=O)N1CCCC1C(=O)NC(C=O)CCCN=C(N)N (stereo partly drawn) (Boc-Arg-[ξP]-[ξR]-aldehyde)
(4) CN(CC(=O)NC(C=O)CCCN=C(N)N)C(=O)[C@H](CCCN=C(N)N)NS(=O)(=O)Cc1ccccc1 (stereo partly specified)
Asked: hey, can you rank those compounds up there by Ratio? biggest number first please List labels; respect the requested ordering.
Given back: 1, 4, 2, 3
(1: 1500, 4: 100, 2: 30, 3: 4)

====

Square brackets hold non-standard residues; d marks the D form. Peptide text beside a SMILES is read from it. * marks the point of attachment. ξ: configuration not given here. 1Nal = N[C@@H](Cc1cccc2ccccc12)C(=O)O; ξR = N=C(N)NCCCC(N)C(=O)O; Boc = CC(C)(C)OC(=O)*; ξP = O=C(O)C1CCCN1
Consider the following IC50 values measured on Prothrombin (Homo sapiens, UniProt P00734).

These solved cases illustrate the format of a correct answer.
* CC(C)(C)OC(=O)N[C@@H](CCCNC(=N)N)C(=O)N1CCCC1C(=O)NC(C=O)CCCNC(=N)N (stereo partly drawn) (Boc-Arg-[ξP]-[ξR]-aldehyde) | 0.2 µM
* N=C(N)NCCC[C@@H](C=O)NC(=O)CNC(=O)C(CCCN=C(N)N)NC(=O)NCc1ccccc1 (single isomer, unassigned) | 170 µM
* N=C(N)NCCCC(C=O)NC(=O)CNC(=O)[C@H](CCCNC(=N)N)NS(=O)(=O)CCc1cccc2ccccc12 (stereo partly drawn) | 39 µM
* N=C(N)NCCCC(C=O)NC(=O)CNC(=O)[C@H](CCCNC(=N)N)NS(=O)(=O)Cc1ccccc1 (stereo partly drawn) | 50 µM
* C/N=C(\N(C)C)N(C)CCCC[C@H](NC(=O)OC(C)(C)C)C(=O)NCC(=O)NC(C=O)CCCNC(=N)N (stereo partly drawn) | > 100 µM
* CC(C)(C)OC(=O)NC(CCCN=C(N)N)C(=O)NC(C)(C)C(=O)N[C@H](C=O)CCCN=C(N)N (single isomer, unassigned) | > 500 µM
* CCOC(=O)NC(CCCN=C(N)N)C(=O)NCC(=O)N[C@H](C=O)CCCN=C(N)N (single isomer, unassigned) | > 100 µM
* CC(C)(C)OC(=O)N[C@@H](CCCNC(=N)N)C(=O)N[C@@H](Cc1cccc2ccccc12)C(=O)NC(C=O)CCCNC(=N)N (stereo partly drawn) (Boc-Arg-[1Nal]-[ξR]-aldehyde) | 42 µM

// moving on: another record for IC50
Asked: What IC50 value was documented for this compound, N=C(N)NCCCC(NC(=O)CC(=O)O)C(=O)NCC(=O)N[C@H](C=O)CCCNC(=N)N (single isomer, unassigned) ?
Given back: > 100 µM

====

- target-entity: Coagulation factor X (Homo sapiens, UniProt P00742)
- Sequence (P00742 41-179 limits assumed): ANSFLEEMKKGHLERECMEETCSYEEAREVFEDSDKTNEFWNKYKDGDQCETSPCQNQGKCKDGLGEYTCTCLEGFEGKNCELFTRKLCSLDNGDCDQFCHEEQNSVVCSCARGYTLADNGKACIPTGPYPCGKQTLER
- Sequence (P00742 235-488 limits assumed): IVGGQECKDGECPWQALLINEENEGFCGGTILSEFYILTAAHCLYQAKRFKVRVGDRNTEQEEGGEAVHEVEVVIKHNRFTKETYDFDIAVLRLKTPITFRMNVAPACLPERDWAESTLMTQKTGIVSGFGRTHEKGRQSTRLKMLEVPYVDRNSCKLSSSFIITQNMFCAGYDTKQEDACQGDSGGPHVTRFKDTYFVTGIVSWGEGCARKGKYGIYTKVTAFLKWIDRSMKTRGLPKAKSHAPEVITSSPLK
Square brackets hold non-standard residues; d marks the D form. Peptide text beside a SMILES is read from it. * marks the point of attachment. ξ: configuration not given here. 1Nal = N[C@@H](Cc1cccc2ccccc12)C(=O)O; ξR = N=C(N)NCCCC(N)C(=O)O; Boc = CC(C)(C)OC(=O)*; ξP = O=C(O)C1CCCN1
measure: IC50 (nM)

These solved cases illustrate the format of a correct answer.
• CC(C)(C)OC(=O)NC(CCCN=C(N)N)C(=O)NCC(=O)N[C@H](C=O)CCCN=C(N)N (single isomer, unassigned; 4) = 2000
• N=C(N)NCCCC(C=O)NC(=O)CNC(=O)[C@H](CCCNC(=N)N)NS(=O)(=O)CCc1cccc2ccccc12 (some centres undefined) = 27
• CC(C)(C)OC(=O)N[C@@H](CCCN=C(N)N)C(=O)N1CCC[C@H]1C(=O)NC(C=O)CCCN=C(N)N (stereo partly drawn) (Boc-Arg-Pro-[ξR]-aldehyde) = 60000
• C/N=C(\N(C)C)N(C)CCCC[C@H](NC(=O)OC(C)(C)C)C(=O)NCC(=O)NC(C=O)CCCNC(=N)N (some centres undefined) = 3000
• CC(C)(C)OC(=O)NC(CCCN)C(=O)NCC(=O)N[C@H](C=O)CCCN=C(N)N (single isomer, unassigned) = 12000
• NC(N)=NCCCC(N)C(=O)NCC(=O)N[C@H](C=O)CCCN=C(N)N (single isomer, unassigned) = 190
• CC(C)(C)OC(=O)N[C@@H](CCCNC(=N)N)C(=O)N1CCCC1C(=O)NC(C=O)CCCNC(=N)N (stereo partly drawn) (Boc-Arg-[ξP]-[ξR]-aldehyde) = 46

(P) CCOC(=O)NC(CCCN=C(N)N)C(=O)NCC(=O)N[C@H](C=O)CCCN=C(N)N (single isomer, unassigned)
(Q) CC(C)(C)OC(=O)N[C@@H](CCCNC(=N)N)C(=O)N[C@@H](Cc1cccc2ccccc12)C(=O)NC(C=O)CCCNC(=N)N (stereo partly drawn) (Boc-Arg-[1Nal]-[ξR]-aldehyde)
Asked: Please indicate which entry, P or Q , has the lower recorded IC50 value. Response format: the label of the selected entry.
Given back: P

====

- target-entity: Thrombin and coagulation factor X (Homo sapiens) (UniProt P00734+P00742)
- assay-comment: Ratio of factor Xa inhibitory activity to that of factor IIa inhibitory activity
- Type: protein assay
Square brackets hold non-standard residues; d marks the D form. Peptide text beside a SMILES is read from it. * marks the point of attachment. ξ: configuration not given here. ξR = N=C(N)NCCCC(N)C(=O)O; Boc = CC(C)(C)OC(=O)*
measure: Ratio

• N=C(N)NCCCC(NC(=O)CCc1ccccc1)C(=O)NCC(=O)N[C@H](C=O)CCCNC(=N)N (single isomer, unassigned) = 375
• CC(C)(C)OC(=O)N[C@@H](CCCN=C(N)N)C(=O)N1CCC[C@H]1C(=O)NC(C=O)CCCN=C(N)N (stereo partly drawn) (Boc-Arg-Pro-[ξR]-aldehyde) = 8
• N=C(N)NCCC[C@@H](C=O)NC(=O)CNC(=O)C(CCCN=C(N)N)NC(=O)NCc1ccccc1 (single isomer, unassigned) = 770

(a) CC(=N)NCCCC(NC(=O)OC(C)(C)C)C(=O)NCC(=O)N[C@H](C=O)CCCN=C(N)N (single isomer, unassigned)
(b) CC(C)(C)OC(=O)NC(CCCCN=C(N)N)C(=O)NCC(=O)N[C@H](C=O)CCCN=C(N)N (single isomer, unassigned)
Asked: Please indicate which entry, a or b , has the lower recorded Ratio value. Response format: the label of the selected entry.
Given back: a
(a: 88, b: 4000)
